Origin of the recorded values: patent US20240287172A1

In this section we review reported loss of binding vs wild type values for a set of binders.
Molecular target: T1, hiR2-FL-T544P-T7 (human, UniProt Q6PJF5 1-856)
T1 sequence: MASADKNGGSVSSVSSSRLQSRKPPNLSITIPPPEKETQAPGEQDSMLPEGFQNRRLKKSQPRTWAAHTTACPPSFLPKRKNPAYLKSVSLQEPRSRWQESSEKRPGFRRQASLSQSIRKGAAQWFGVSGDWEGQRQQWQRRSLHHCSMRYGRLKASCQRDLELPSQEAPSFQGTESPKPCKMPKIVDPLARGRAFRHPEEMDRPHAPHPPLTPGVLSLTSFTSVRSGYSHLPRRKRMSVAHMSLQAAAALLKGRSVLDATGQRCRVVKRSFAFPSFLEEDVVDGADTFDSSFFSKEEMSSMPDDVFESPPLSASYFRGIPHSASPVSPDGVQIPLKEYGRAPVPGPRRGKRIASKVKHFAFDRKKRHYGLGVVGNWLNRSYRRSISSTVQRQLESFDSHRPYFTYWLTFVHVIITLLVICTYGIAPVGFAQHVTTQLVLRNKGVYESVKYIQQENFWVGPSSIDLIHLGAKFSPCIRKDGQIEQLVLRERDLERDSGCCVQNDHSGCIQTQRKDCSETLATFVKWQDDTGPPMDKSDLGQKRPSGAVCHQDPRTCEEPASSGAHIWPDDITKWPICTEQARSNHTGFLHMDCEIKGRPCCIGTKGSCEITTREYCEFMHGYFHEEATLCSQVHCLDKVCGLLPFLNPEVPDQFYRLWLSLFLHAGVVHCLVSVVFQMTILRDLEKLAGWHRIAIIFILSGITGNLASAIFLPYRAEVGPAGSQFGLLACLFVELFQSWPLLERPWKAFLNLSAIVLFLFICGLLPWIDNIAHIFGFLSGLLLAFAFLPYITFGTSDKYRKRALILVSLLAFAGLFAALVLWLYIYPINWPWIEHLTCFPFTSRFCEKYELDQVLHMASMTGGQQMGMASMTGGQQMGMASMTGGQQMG
Test: FACS, MEF-DKO cells, 3 µg/ml

binder: antibody 3 (antibody, V domains shown, mouse IgG, kappa light chain; also called clone #3; purified antibody 3) VH: QVTLKESGPGILQPSQTLSLTCSFSGFSLTTFAMGIGWVRQPSGKGLEWLAHIWWDGEKYNNPVLKSRLTISKDTSKNQVFLRIANVDTPDTATYYCARISSIYYIIDNWGQGTSVTVSS VL: DIVLTQSPATLSVTPGHSVSLSCRASQSISNNLHWYQKKSHESPRLLIKYVSQSISGIPSRFSGSGSGTDFTLSINSVETEDFGMYFCQQSYNWPLTFGAGTKLELK
loss of binding vs wild type: ≥ 60%
--
binder: antibody 44 (antibody, V domains shown, mouse IgG, kappa light chain; also called clone #44; purified antibody 44) VH: QVTLKESGPGILQPSQTLSLTCSFSGFSLSTFGMGVGWIRQPSEKGLEWLAHIWWDDDKYYNPALKSRLTISKDTSKNQIFLKITNVDTAETATYYCSRIGNYGSNYWYFDVWGTGTTVTVSS VL: QIVLTQSPAVMSASPGEKVTMTCTASSSVYYMYWYQQTPGSSPRLLIYDTSNLASGVPVRFSGSGSGTSYSLTISRMEAEDAATYYCQQWNTYPLTFGAGTKLELK
loss of binding vs wild type: ≥ 30%
--
binder: antibody 22 (antibody, V domains shown, mouse IgG, kappa light chain; also called clone #22; purified antibody 22) VH: QVTLKESGPGILQPSQTLSLTCSFSGFSLSTFGMGVGWIRQPSGKGLEWLAHIWWDDEKYYNSALKSRLTISKATSKNQVFLKIANVDTADTATYYCARISNYGSNYWYFNVWGTGTTVTVSS VL: QVVLTQSPALMSASPGEKVTMTCSAGSSVSYMYWYQQKPGSSPRVLIYDTSNLASGVPARFTGSGSGTSYSLTISRMEAEDAATYYCQQWNSYPLTFGAGTKLELK
loss of binding vs wild type: ≥ 30%
--
binder: antibody 42 (antibody, V domains shown, mouse IgG, kappa light chain; also called clone #42; purified antibody 42) VH: QVTLKESGPGILQPSQTLSLTCSLSGFSLSTFGRGVGWIRQPSGKGLEWLAHIWWDDEKYYNPALKSRLTISKDTSKNQVFLRIANVDTADTATYYCARIQNYGSNYWYFDVWGTGTTVTVSS VL: LIVLTQSPAIMSASPGEKVTMTCGATSRISYMFWYQQKPGSSPRVLIYDTSNLASGVPVRFSGSGSGTSYSLTISRVEAEDVATYYCQQWNSYPLTFGAGTKLELK
loss of binding vs wild type: ≥ 60%
--
binder: antibody 43 (antibody, V domains shown, mouse IgG, kappa light chain; also called clone #43; purified antibody 43) VH: QVALKESGPGILQPSQTLSLTCSFSGFSLSTFGMGVGWIRQSSGKGLEWLANIWWDDDKYYNPALKSRLTISKDASKNQAFLKIANVDTADTATYYCARIGNYGSNYWYFDVWGTGTTVTVSS VL: QIVLTQSPAIMSASPGERVTMTCSANSRISYMYWYQQKPGSSPRLLIYDTSNLASGVPVRFSGSGSGTSYSLTISRMEAEDAATYNCQQWSSYPLTFGAGTKLELK
loss of binding vs wild type: ≥ 60%
--
binder: antibody 48 (antibody, V domains shown, mouse IgG, kappa light chain; also called clone #48; purified antibody 48) VH: QVQLQQSGTELVRPGTSVKVSCKASGYAFTNYLIEWVKQRPGQGLEWIGVINPGSGFTKYNEKFKGKATLTADKSSSTVYMHLSSLTSEDSAVYFCARGLYRAMDYWGQGTSVTVSS VL: DIQMTQSPASQSASLGESVTITCLASQTIATWLAWYQQKPGKSPQLLIYGATTLADGVPSRFSGGGSGTKFSFKISSLQAEDFVSYYCQQLYSTPYTFGGGTKLEIK
loss of binding vs wild type: ≥ 30%
--
binder: antibody 5 (antibody, V domains shown, mouse IgG, kappa light chain; also called clone #5; purified antibody 5) VH: QVTLKESGPGILQPSQTLSLTCSFSGFSLSTFGMGVGWIRQPSGKGLEWLAHIWWDDEKYYNSALKSRLTISKATSKNQAFLKIANVDTADTATYYCARISNYGSNYWYFNVWGTGTTVTVSS VL: QVVLTQSPALMSASPGEKVTMTCSAGSSVSCMYWYQQKPGSSPRVLIYDTSNLASGVPARFTGSGSGTSYSLTISRMEAEDAASYYCQQWNSYPLTFGAGTKLELK
loss of binding vs wild type: ≥ 60%
